Cited source: ChEMBL document CHEMBL5137055

Target: UniProt P05067
Sequence (P05067 whole entry): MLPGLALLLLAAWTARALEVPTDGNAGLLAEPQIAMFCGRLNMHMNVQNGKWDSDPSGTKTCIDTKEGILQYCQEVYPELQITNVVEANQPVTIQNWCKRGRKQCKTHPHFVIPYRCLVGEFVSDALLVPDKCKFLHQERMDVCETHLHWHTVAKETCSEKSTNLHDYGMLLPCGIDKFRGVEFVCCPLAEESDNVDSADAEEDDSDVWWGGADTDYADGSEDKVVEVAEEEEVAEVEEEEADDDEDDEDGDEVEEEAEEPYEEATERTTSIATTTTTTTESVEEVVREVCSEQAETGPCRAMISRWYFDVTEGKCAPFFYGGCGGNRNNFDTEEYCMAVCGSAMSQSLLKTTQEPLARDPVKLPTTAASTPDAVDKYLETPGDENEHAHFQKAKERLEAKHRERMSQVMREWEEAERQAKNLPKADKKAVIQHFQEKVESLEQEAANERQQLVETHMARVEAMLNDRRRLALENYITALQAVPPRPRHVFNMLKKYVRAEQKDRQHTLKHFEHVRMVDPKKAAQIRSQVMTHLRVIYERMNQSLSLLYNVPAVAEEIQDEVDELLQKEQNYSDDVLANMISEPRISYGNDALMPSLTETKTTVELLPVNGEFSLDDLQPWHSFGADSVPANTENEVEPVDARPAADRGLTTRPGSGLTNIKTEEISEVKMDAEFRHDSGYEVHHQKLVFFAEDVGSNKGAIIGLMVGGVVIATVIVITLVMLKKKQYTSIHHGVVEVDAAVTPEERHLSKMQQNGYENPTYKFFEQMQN
Assay: Displacement of [125I]IMPY from amyloid beta (1 to 42) (unknown origin) measured by competitive radioligand binding assay
Measured parameter: Ki (nM)
Unit nM implied. Number only.

INSERT INTO assay_data (smiles_str, measured_parameter, unit_symbol, value_observed) VALUES
  ('CN1C(=O)C(=C/C=C/C=C/c2ccc(N(C)C)cc2)C(=O)N(C)C1=O', 'Ki', 'nM', 13.7);

Give Ki (UniProt P05067) of the following molecule: COC(=O)C(=C/C=C/C=C/c1ccc(N(C)C)cc1)C(=O)OC
652

---

Experiment: Binding affinity to amyloid beta (unknown origin) aggregates
Parameters: species or system Homo sapiens
Measured parameter: pKd
The meaning of pKd here: minus log10 of the concentration in molar units.

Some compounds with recorded pKd:
INSERT INTO assay_data (smiles_str, value_observed) VALUES
  ('Cc1cc(/C=C/c2ccc3cc(N(C)C)ccc3c2)n2c1C=C1C=CC=[N+]1[B-]2(F)F', 6.79),
  ('Cc1cc(/C=C/C=C/c2ccc(N(C)C)cc2)n2c1C=C1C=CC=[N+]1[B-]2(F)F', 6.49),
  ('COCCOCCOCCOC(=O)/C(C#N)=C/c1ccc(-c2ccc3cc(N4CCCCC4)ccc3c2)n1C', 5.64);

// switching to the query compound
Reported pKd, compound COCCOCCOCCOC(=O)/C(C#N)=C/c1ccc(-c2ccc3cc(N4CCCCC4)ccc3c2)s1 : ____
6.28

---

Items are presented alongside their recorded pKd.
Test: Binding affinity to tau protein (unknown origin)
Set-up: species or system Homo sapiens
The meaning of pKd here: minus log10 of the concentration in molar units.

Some compounds with recorded pKd:
INSERT INTO results (smiles_str, value_observed) VALUES
  ('CN(C)c1ccc(/C=C/c2cc(/C=C/c3ccc(N(C)C)cc3)ncn2)cc1', 7.27),
  ('Cc1cc(/C=C/C=C/c2ccc(N(C)C)cc2)n2c1C=C1C=CC=[N+]1[B-]2(F)F', 8.54);

// switching to the query compound
Reported pKd, compound C(=C\c1cc(/C=C/c2ccc(N3CCCC3)cc2)ncn1)/c1ccc(N2CCCC2)cc1 : ____
7.28
